MEASUREMENT TARGET: Hydroxycarboxylic acid receptor 3 (Homo sapiens, UniProt P49019)
Sequence (P49019 whole entry): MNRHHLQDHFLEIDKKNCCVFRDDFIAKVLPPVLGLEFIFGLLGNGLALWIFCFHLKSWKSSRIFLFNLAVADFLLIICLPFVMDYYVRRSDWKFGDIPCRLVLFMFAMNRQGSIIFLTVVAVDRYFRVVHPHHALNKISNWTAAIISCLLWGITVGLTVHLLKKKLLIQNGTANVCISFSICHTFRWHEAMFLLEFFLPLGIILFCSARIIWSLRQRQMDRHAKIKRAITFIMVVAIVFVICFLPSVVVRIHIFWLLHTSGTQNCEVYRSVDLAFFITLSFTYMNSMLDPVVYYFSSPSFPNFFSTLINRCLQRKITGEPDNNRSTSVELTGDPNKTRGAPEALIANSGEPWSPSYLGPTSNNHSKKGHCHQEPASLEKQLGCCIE
ASSAY DETAILS: Agonist activity at human GPR109b receptor transfected in CHOK1 cells assessed as reversal of forskolin-induced cAMP elevating effect by whole cell assay
Type: functional, cell-based, CHO-K1
VALUE TYPE: EC50 (nM)
Only the number, expressed in nM, is required.

What value of measured EC50 is listed for COCC(C)Nc1ccc(C(=O)O)cn1 (centres undefined) ?
3240

What value of measured EC50 is listed for CC(C)Nc1ccc(C(=O)O)cn1 ?
603

What value of measured EC50 is listed for O=C(O)c1ccc(NC2CCC2)c([N+](=O)[O-])c1 ?
200

What value of measured EC50 is listed for CCNc1ccc(C(=O)O)cc1[N+](=O)[O-] ?
229

What value of measured EC50 is listed for O=C(O)c1ccc(NCC2CCCO2)c([N+](=O)[O-])c1 (centres undefined) ?
309

What value of measured EC50 is listed for CCCN(C)c1ccc(C(=O)O)cn1 ?
1620

What value of measured EC50 is listed for CC(C)C(C)Nc1ccc(C(=O)O)cc1[N+](=O)[O-] (centres undefined) ?
363

What value of measured EC50 is listed for O=C(O)c1ccc(NC2CCCC2)c([N+](=O)[O-])c1 ?
309

What value of measured EC50 is listed for CN(C)c1ccc(C(=O)O)cc1[N+](=O)[O-] ?
2040

What value of measured EC50 is listed for CCCN(CCC)c1ccc(C(=O)O)cc1[N+](=O)[O-] ?
120

What value of measured EC50 is listed for O=C(O)c1ccc(Nc2ccccc2)nc1 ?
3240

What value of measured EC50 is listed for CCC(C)Nc1ccc(C(=O)O)cc1[N+](=O)[O-] (centres undefined) ?
151

What value of measured EC50 is listed for CCCNc1ccc(C(=O)O)cc1[N+](=O)[O-] ?
29.5
